Origin of measurements: the supplement of paper PMC10567573

B1: ADD1 (parent)
chain: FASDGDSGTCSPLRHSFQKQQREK

# Variants of: B1
# test_method_notes: protein stability index of a GFP-peptide fusion (GPS, HEK-293T) (PSI 1-6); higher = more stable;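 further: lentivirally expressed fusions sorted by FACS into six bins by GFP to DsRed ratio, PSI derived from sequencing read proportions per bin multiplied by bin number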
# protocol_conditions: c terminus: a fixed tail appended
quantity_name: protein stability index

protein stability index for FASDGDSGTCSPLAHSFQKQQREK [R14A] is 4.18

FARDGDSGTCSPLRHSFQKQQREK [S3R] has a reported protein stability index of 3.25

Short answer for FASDGDSGTCSPLRHSFQKQKREK [Q21K] : protein stability index was 3.75

Form field protein stability index, entry FASDGDSGTCSPLSHSFQKQQREK [R14S] : 4.45
